The reported numbers originate from ChEMBL document CHEMBL3608288.

system: Klebsiella pneumoniae; test: Antibacterial activity against Klebsiella pneumoniae ATCC 27736 after 16 hrs by microtiter broth dilution method; format: functional; details: ATCC 27736, 16 h
Measured MIC values are reported for all entries that follow.

Worked cases, answers included:
ENTRY_SMILES	MEASURED_TARGET	ASSAY_READOUT	RESULT
CCOC(=O)c1csc(/N=C/c2cc(/C=C/C(=O)c3ccco3)cc(C(C)(C)C)c2O)n1	Klebsiella pneumoniae	MIC	> 110 µM
CCOC(=O)c1csc(/N=C/c2cc(/C=C/C(=O)c3cccs3)cc(C(C)C)c2O)n1	Klebsiella pneumoniae	MIC	> 110 µM
C[C@@H]1[C@H](O)[C@@H](C)/C=C/C=C/C=C/C=C/C=C/C=C/C=C/[C@H](O[C@@H]2O[C@H](C)[C@@H](O)[C@H](N)[C@@H]2O)C[C@@H]2O[C@](O)(C[C@@H](O)C[C@@H](O)[C@H](O)CC[C@@H](O)C[C@@H](O)CC(=O)O[C@H]1C)C[C@H](O)[C@H]2C(=O)O	Klebsiella pneumoniae	MIC	> 54.1 µM
COc1ccc(C(=O)/C=C/c2cc(/C=N/c3nc(-c4ccc(OC)c(OC)c4)cs3)c(O)c(C(C)(C)C)c2)cc1	Klebsiella pneumoniae	MIC	> 89.8 µM
COc1ccc(-c2csc(/N=C/c3cc(/C=C/C(=O)c4ccc(C)cc4)cc(C(C)(C)C)c3O)n2)cc1OC	Klebsiella pneumoniae	MIC	> 92.5 µM

Query block: Field request: MIC | item: "CCCc1cc(/C=C/C(=O)c2ccco2)cc(/C=N/c2nc(C(=O)OCC)cs2)c1O"
Result block: > 102 µM

Query block: Consider the compound shown here: "CCOC(=O)c1csc(/N=C/c2cc(/C=C/C(=O)c3ccc(OC)cc3)cc(C(C)C)c2O)n1" What is its recorded MIC?
Result block: > 104 µM
